Below is a list of entries, each paired with its recorded TGI value.
Tested on: KM12 colon
Experimental Details: NCI tumour cell line growth inhibition, 48 h
Readout Type: TGI

- O=C(OC[C@@H]1CO1)c1cccc2c(=O)c3ccccc3[nH]c12: 0.771 µM
- Cn1c(NC(=O)NC23CC4CC(CC(C4)C2)C3)nc2ccccc21: > 100 µM
- COc1ccc(-c2cc(-c3ccco3)c(C#N)c(=O)[nH]2)cc1: > 100 µM
- OCCCCC#Cc1ccccc1C#Cc1ccc(C(F)(F)F)cc1: 29.8 µM
- CC(C)=CC(=O)c1c(C(=O)O)nc2ccccc2[n+]1[O-]: > 100 µM
- O=C(O)Cn1ccc(=O)c2cc([N+](=O)[O-])ccc21: > 100 µM
- Nc1ccc(C(=O)/C=C/c2ccccc2O)cc1: > 100 µM

* * *

Below is a list of entries, each paired with its recorded TGI value.
System: NCI/ADR-RES ovarian
Experimental Details: NCI tumour cell line growth inhibition, 48 h
Readout Type: TGI

• CSc1nc(C)c2c(n1)N(c1ccc(Cl)cc1)CC2 = > 100 µM
• S=c1[nH]n2c(COc3cc(Cl)c(OCc4nnc5sc(=S)[nH]n45)cc3Cl)nnc2s1 = > 100 µM
• COc1ccc(Cc2nc3cc(OC)c(OC)cc3c(=O)[nH]2)cc1 = 59 µM
• Cc1ccc(-n2cc(-c3ccc(Cl)cc3)c3c(=N)n(N)cnc32)cc1 = 26.8 µM
• CSc1nc[nH]c1C(N)=S = > 100 µM
• C=C1CC/C=C(\C)CC[C@H](C(=C)C)[C@@H](O)/C=C(/CO)CCC1O (stereo partly specified) = > 100 µM
• C#Cc1cccc(NC(=O)C2CCCN(C(=O)CCl)C2)c1 (stereo unspecified) = > 82.5 µM
• COc1ccc(/C=N/NC(=S)Nc2cc(C)ccc2OC)cc1 = > 100 µM
• CNCc1cccc2c1OCCOCCOCCC(C)S(=O)(=O)c1ccc(cc1)-c1cnc(N)c(n1)C(=O)N2 (stereo unspecified) = 29.1 µM
• Oc1ccc(SCc2cc(O)ccc2O)cc1 = > 57.5 µM
• COc1ccc(C23OCC(Cc4cc(OC)c(OC)cc42)C3CO)cc1OC (stereo unspecified) = > 100 µM

* * *

Tested on: RXF 393 renal
Experimental Details: NCI tumour cell line growth inhibition, 48 h
Readout Type: TGI

• Cc1ccc(S(=O)(=O)N2CCC(C(=O)O)(c3ccccc3)CC2)cc1 = > 100 µM
• COc1ccc2c(c1)[n+](=O)c(C(C)=O)c(C)n2[O-] = > 100 µM
• CCOC(=O)c1csc(NC(=O)C(C)N2CCOCC2)n1 (stereo not drawn) = > 100 µM
• C=C(Cn1c2ccccc2c(=O)c2ccccc21)c1ccc(C(=O)Nc2ccccc2N)cc1 = > 100 µM
• CC(=O)O[C@H]1C(=O)[C@@]2(C)[C@H]([C@H](OC(=O)c3ccco3)[C@]3(O)C[C@H](OC(=O)[C@H](O)[C@@H](NC(=O)c4ccccc4)c4ccccc4)C(C)=C1C3(C)C)[C@]1(OC(C)=O)CO[C@@H]1C[C@@H]2O = 3.76 µM
• O=C1CCS/C(=N/S(=O)(=O)c2ccc(N3N=C4c5ccccc5CC4C3c3cccs3)cc2)N1Cc1ccccc1 (stereo not drawn) = 63.9 µM
• CC(=O)NN(c1ccccc1)C1CCN(c2ccccc2)N1C(C)=O (stereo not drawn) = > 10 µM
• COc1cc2c(cc1OC)C(=O)/C(=C/c1ccc(N(C)C)cc1)CC2 = > 10 µM
• Cc1nc(Cc2n[nH]c(C)n2)n[nH]1 = > 100 µM
• NC(Cc1ccccc1CP(=O)(O)O)C(=O)O (stereo not drawn) = > 100 µM
• CCC1CN2CCc3c([nH]c4ccccc34)[C@@](C(=O)OC)(c3cc4c(cc3OC)N(C)C3C(O)(C(=O)OC)C(C(=O)OC)C5(CC)C=CCN6CCC43C65)C[C@@H](C2)[C@@H]1C(C)(C)C (stereo partly drawn) = > 10 µM
• COc1ccc(OCC(O)CN2CCN(c3ccc(Cl)cc3)CC2)cc1 (stereo not drawn) = > 100 µM
• S=c1[nH]nc(CCCCCCCCc2n[nH]c(=S)o2)o1 = > 100 µM
